assay: Water solubility in cold water; type: physicochemical
MEASURE_NAME: solubility (µg/mL)

Examples from the recorded data:
COMPOUND: O=c1[nH]c(=O)c2[nH]c(=O)[nH]c2[nH]1 [uric acid]
solubility [µg/mL]: 100
--
COMPOUND: Cn1c(=O)[nH]c2[nH]c(=O)n(C)c2c1=O [mUA2, 1,7 dimethyl uric acid]
solubility [µg/mL]: 2000

[P] S=c1[nH]c(=S)c2[nH]c(=S)[nH]c2[nH]1 [sUA4, 2,6,8 trithio uric acid]
[Q] O=c1[nH]c(=S)c2[nH]c(=S)[nH]c2[nH]1 [sUA2, 6,8 dithio uric acid]
-- ask Between P and Q , which one shows the larger solubility value? Field: selected label. Fill in the label of the entry you choose.
-- reply P

Where do the numbers come from? From patent US20100105707A1.
